- Test system: NCI-H226 lung
- Method Summary: NCI tumour cell line growth inhibition, 48 h
Below is a list of entries, each paired with its recorded log10 of TGI value.
Measured Quantity: log10 of TGI (log10 of the value in µM)

* O=S1(=O)CCN(c2ccccc2CC(c2c[nH]c3ccccc23)c2c[nH]c3ccccc23)CC1 | 1.63
* CC1(C)C2CCC13C(=O)C1OC3(C2)C2C(=O)c3c(O)cccc3C(=O)C12 (stereo not drawn) | 1.38
* c1ccc(CC(NCCNC(Cc2ccccc2)c2ccccc2)c2ccccc2)cc1 (stereo not drawn) | 0.45
* COc1cc(-n2cc(-c3cc(O)c(C/C=C(\C)CCC=C(C)C)c(O)c3)nn2)cc2c1O[C@]1(C)CC[C@@H](O)C(C)(C)[C@H]1C2 | 1.84
* COC(=O)c1cc2c3c(ccc2[nH]1)N(C(=O)c1cc2c4c(ccc2[nH]1)N(C(=O)c1cc2c5c(ccc2[nH]1)N(C(N)=O)CC5)CC4)CC3 | 0.76
* O=C(Cc1ccc(/C=C/C(=O)c2ncc[nH]2)cc1)Nc1ccc(C(F)(F)F)cc1 | 1.12
